target: rat NPT-IIb (Rattus norvegicus); construct: rat NPT-IIb ORF was cloned into p3×FLAG-CMV-10 by PCR; expressed in transfected cells; assay: Inhibitory action against 33P-phosphate uptake into rat NPT-IIb expression cell; type: cell-based; settings: HEK293; compound concentration 1 μM; rat NPT-IIb stable expression 293 cells; read-out: Int. 1 (%): inhibition rate of the 33P-phosphate uptake into the rat NPT-IIb
Sequence (Q9JJ09 whole entry): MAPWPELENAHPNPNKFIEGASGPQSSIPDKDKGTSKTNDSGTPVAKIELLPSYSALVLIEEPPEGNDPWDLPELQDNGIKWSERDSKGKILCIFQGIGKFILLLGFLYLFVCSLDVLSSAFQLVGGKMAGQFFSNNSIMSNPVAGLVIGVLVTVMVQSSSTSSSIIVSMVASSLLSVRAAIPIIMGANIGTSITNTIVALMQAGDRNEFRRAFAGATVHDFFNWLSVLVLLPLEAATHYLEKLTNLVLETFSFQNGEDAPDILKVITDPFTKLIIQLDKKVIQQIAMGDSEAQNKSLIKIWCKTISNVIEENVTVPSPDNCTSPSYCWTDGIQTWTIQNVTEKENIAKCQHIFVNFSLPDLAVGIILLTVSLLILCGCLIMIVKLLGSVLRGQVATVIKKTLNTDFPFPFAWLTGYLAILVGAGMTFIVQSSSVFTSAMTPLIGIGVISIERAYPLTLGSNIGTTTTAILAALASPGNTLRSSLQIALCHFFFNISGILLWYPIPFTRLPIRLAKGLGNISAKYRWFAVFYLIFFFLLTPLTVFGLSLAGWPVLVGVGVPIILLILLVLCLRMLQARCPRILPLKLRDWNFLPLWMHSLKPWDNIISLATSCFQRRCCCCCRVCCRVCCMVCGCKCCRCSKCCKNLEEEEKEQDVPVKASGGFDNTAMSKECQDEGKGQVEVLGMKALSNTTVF
Where a name gives a salt, the structure may show the parent alone.
Rule: criterion met for inhibition at 1 µM not less than 80%, criterion not met for anything less.

# example entries with known answers
| compound | class-label |
| --- | --- |
| CC(C)N(CCN(C)C(=O)CCC(=O)O)Cc1cccc(C(=O)Nc2sc3c(c2C(=O)Nc2ccc(CCc4ccc(C(=O)O)cc4)cc2)CCCC3)c1 [Example 38] | criterion not met |
| CCC(CC)N(CCN(C)C(=O)CCC(=O)O)Cc1cc(C(=O)Nc2sc3c(c2C(=O)Nc2ccc(CCc4ccc(C(=O)O)cc4)cc2)CCCC3)ccn1 [Example 99] | criterion not met |
| CCC(CC)N(CCN(C)C(=O)CCC(C)(C)C(=O)O)Cc1cccc(C(=O)Nc2sc3c(c2C(=O)Nc2ccc(CCc4ccc(C(=O)O)cc4)cc2)CCCC3)c1 [Example 67, hydrochloride] | criterion met |
| CCC(CC)N(CCN(C)C(=O)CCC(=O)O)Cc1cccc(C(=O)Nc2sc3c(c2C(=O)Nc2ccc(CCc4ccc(C(=O)O)cc4)nc2)CCCC3)c1 [Example 96] | criterion not met |
| CCN(CCN(Cc1cccc(C(=O)Nc2sc3c(c2C(=O)Nc2ccc(CCc4ccc(C(=O)O)cc4)cc2)CCCC3)c1)C1CC1)C(=O)CCC(=O)O [Example 31] | criterion met |
| CN(CCN(Cc1cccc(C(=O)Nc2sc3c(c2C(=O)Nc2ccc(CCc4ccc(C(=O)O)cc4)cc2)CCCC3)c1)C1CC1)C(=O)CCC(=O)O [Example 37] | criterion not met |
| CCC(CC)N(CCN(C)C(=O)CCC(=O)O)Cc1cccc(C(=O)Nc2sc3c(c2C(=O)Nc2ccc(CCCc4ccc(C(=O)O)cc4)cc2)CCCC3)c1 [Example 53] | criterion met |
| CC(C)N(Cc1cccc(C(=O)Nc2sc3c(c2C(=O)Nc2ccc(CCc4ccc(C(=O)O)cc4)cc2)CCCC3)c1)[C@H]1CC[C@H](C(=O)O)CC1 [Example 172] | criterion not met |
| CCC(CC)N(CCN(C)C(=O)OCC(=O)O)Cc1cccc(C(=O)Nc2sc3c(c2C(=O)Nc2ccc(CCc4ccc(C(=O)O)cc4)cc2)CCCC3)c1.Cl [Example 4, hydrochloride] | criterion not met |
| CCC(CC)N(Cc1cccc(C(=O)Nc2sc3c(c2C(=O)Nc2ccc(CCc4ccc(C(=O)O)cc4)cc2)CCCC3)c1)C(=O)CCC(C)(C)C(=O)O [Example 109] | criterion met |

Check the entry CCC(CC)N(CCN(CCOC)C(=O)CCC(=O)O)Cc1cccc(C(=O)Nc2sc3c(c2C(=O)Nc2ccc(CCc4ccc(C(=O)O)cc4)cc2)CCCC3)c1.Cl [Example 60] : does inhibition at 1 µM equal or exceed 80%? criterion met

How about this compound: CC(C)[C@@H](C)N(CCN(C)C(=O)CCC(=O)O)Cc1cccc(C(=O)Nc2sc3c(c2C(=O)Nc2ccc(CCc4ccc(C(=O)O)cc4)cc2)CCCC3)c1 [Example 70] criterion not met

How about this compound: CCC(CC)N(CCc1cccc(C(=O)Nc2sc3c(c2C(=O)Nc2ccc(CCc4ccc(C(=O)O)cc4)cc2)CCCC3)c1)CCN(C)C(=O)CCC(=O)O [Example 79] criterion not met

How about this compound: CCC(CC)N(CCN(C)C(=O)CCC(=O)O)Cc1cccc(C(=O)Nc2sc(C3CCCCC3)cc2C(=O)Nc2ccc(CCc3ccc(C(=O)O)cc3)cc2)c1 [Example 41] criterion not met

How about this compound: CCC(CC)N(CCN(C)C(=O)CCC(=O)O)Cc1cccc(C(=O)Nc2sc3c(c2C(=O)Nc2ccc(CCc4ccc(C(=O)O)cc4)cc2)CCCCCC3)c1 [Example 43] criterion not met

How about this compound: CCC(CC)N(CCCN(C)C(=O)CCC(=O)O)Cc1cccc(C(=O)Nc2sc3c(c2C(=O)Nc2ccc(CCc4ccc(C(=O)O)cc4)cc2)CCCC3)c1.Cl [Example 66] criterion not met

How about this compound: CCC(CC)N(CCN(C)C(=O)CCC(=O)O)Cc1cccc(C(=O)Nc2sc3c(c2C(=O)Nc2ccc(CCc4ccc(C(=O)O)cc4)cc2)CCCC3)c1.Cl [Example 2, hydrochloride] criterion met

These entries and their values trace back to patent US9062032B2.
